target: T1, cynomolgus PD-L1, his tagged (cPD-L1-his) (cynomolgus (Macaca fascicularis), UniProt G7PSE7 19-238); assay: ELISA on cynomolgus PD-L1
T1 construct: also called cyPD-L1-His; Cyno PD-L1
T1 sequence (G7PSE7 entry or part of it limits assumed, form in doubt): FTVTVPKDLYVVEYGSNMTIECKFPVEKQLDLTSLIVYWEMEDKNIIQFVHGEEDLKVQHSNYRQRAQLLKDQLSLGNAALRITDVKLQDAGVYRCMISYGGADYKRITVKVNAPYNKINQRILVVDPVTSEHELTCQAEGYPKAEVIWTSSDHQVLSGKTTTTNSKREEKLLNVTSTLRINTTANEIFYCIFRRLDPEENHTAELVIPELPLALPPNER
Measurement Label: ELISA cyno, Fold over Bkg (fold over background)
Give the quantity in fold over background, number only.

# annotated cases, reported ELISA cyno, Fold over Bkg shown
ELISA cyno, Fold over Bkg recorded for this binder, PAL752 (hybridoma 4G6.H4) (antibody, V domains shown, Mouse IgG purified from hybridoma supernatant) VH: EVQLQESGAELARPGASVKLSCKASGHAFTSDSINWVKQRIGQGLEWIGEIYPRSGNPYYNEKFKGKATLTADKSSSTAYMELRSLTSEDSAVYFCATDYYGRYFDVWGTGTTVTVSS VL: DIQMTQSSFSFSVSLGDRVTIICKASEDIYNRLAWYQQKPGNTPRLLISGATSLETGVPSRFSGSGSGKDYTLSITSLQTEDVATYYCQQYWSTPWTFGGGTKLEIK , is 18.4

ELISA cyno, Fold over Bkg recorded for this binder, PAL769 (hybridoma 2C1.C8) (antibody, V domains shown, Mouse IgG purified from hybridoma supernatant) VH: EVQLQESGAELVKPGASVTLSCTASGFNIKDTYMHWVKQRPEQGLEWIGRIDPANDNTKYDPKFQDKATITADTSSDTAYLRLSSLTSEDTAVYYCAREGYGGSYGEGYWGQGTTLTVSS VL: SIVMTQTPKFLLVSAGDRVTITCKASQSVSNDVIWYQQKPGQSPKLLIYYASIRFTGVPDRFAGSGYGTDFTFTINTVQAEDLAVYFCQQDYNSPWTFGGGTKLEIK , is 39.5

Further cases:
ELISA cyno, Fold over Bkg recorded for this binder, PAL785 (hybridoma 16G1.A5) (antibody, V domains shown, Mouse IgG purified from hybridoma supernatant) VH: EVQLQESGPELVKPGTSVKMSCKASGYTFTSYVMHWVKQRPGQGLEWIGYINPYNDGSKYNEKFKGKATLTSDTSSSTAYMELSSLTSEDSAVYYCAKQTLDFWGQGTSVTVST VL: DIVLTQSPASLAVSLGQRATISCRASESVEFYGTTLMQWYQQKPGQPPKLLIYAASNVESGVPARFSGSGSGTDFSLNIHPVEEGDIGMYFCQQSRKVPYTFGGGTKLEIK , is 4.98

These data points were gathered from patent US20240067729A1.
